All values here come from PubChem BioAssay.

Test: growth inhibition of GSK3B-pretreated HCT116 cells – cell-based, CellTiter-Glo, 0.2 to 20 µM (AID 1117336)
Conditions: HCT116 viability after GSK3B inhibitor, at 20 µM, stronger effect = higher value
// NB: equality with 10% counts as class 0; only viability decrease strictly below is class 1

Example entries and their recorded answers appear below.
1) Cc1nc(C2CCCCC2)c(-c2ccc(S(N)(=O)=O)c(F)c2)o1 :: class 0
2) CC(=O)CCC(=O)O :: class 1
3) Cc1cccc(N(C)C(=S)Oc2ccc3c(c2)CCC3)c1 :: class 0
4) O=C(CCCN1CC=C(n2c(=O)[nH]c3ccccc32)CC1)c1ccc(F)cc1 :: class 1
5) Clc1ccc2c(c1)Nc1ccccc1S2 :: class 0
6) Cc1c(C)c2c(c(C)c1OC(=O)CCC(=O)OCCO)CC[C@@](C)(CCC[C@H](C)CCC[C@H](C)CCCC(C)C)O2 :: class 0

Does the reported viability decrease of the following molecule sit strictly below 10%? `O=C(O)Cc1ccccc1Oc1ccc(Cl)cc1Cl`
class 1

Does the reported viability decrease of the following molecule sit strictly below 10%? `O=C(Nc1ccc(Br)cc1)c1cc(Br)c(Br)s1`
class 0

Does the reported viability decrease of the following molecule sit strictly below 10%? `Cc1ccc(O)c([C@H](CCN(C(C)C)C(C)C)c2ccccc2)c1`
class 0

Does the reported viability decrease of the following molecule sit strictly below 10%? `O=C(/C=C/c1ccccc1)OCc1ccccc1`
class 1

Does the reported viability decrease of the following molecule sit strictly below 10%? `C[C@H]1C[C@H](O)c2ccsc2S1(=O)=O`
class 1

Does the reported viability decrease of the following molecule sit strictly below 10%? `O=S1(=O)OC(c2ccc(O)cc2)(c2ccc(O)cc2)c2ccccc21`
class 0

Does the reported viability decrease of the following molecule sit strictly below 10%? OC(CCN1CCCC1)(c1ccccc1)C1CCCCC1 (centres undefined)
class 1

Does the reported viability decrease of the following molecule sit strictly below 10%? `CC(=O)SC[C@@H](Cc1ccccc1)C(=O)NCC(=O)OCc1ccccc1`
class 1

Does the reported viability decrease of the following molecule sit strictly below 10%? `CC12CC3CC(C)(C1)CC(N)(C3)C2`
class 1

Does the reported viability decrease of the following molecule sit strictly below 10%? `NCCc1ccc(O)c(O)c1`
class 0

Does the reported viability decrease of the following molecule sit strictly below 10%? `CCOC(=O)Cn1cccc1-c1nc(-c2ccc(OC)cc2)c(-c2ccc(OC)cc2)s1`
class 0
